Catalogue of inhibition at 20 µM readings, one per entry.
Biological target: human-CD73 (Trp27-Lys547, His-tag) (Homo sapiens)
Construct: human-CD73 (Trp27-Lys547, His-tag); His-tag
Sequence (P21589 27-547): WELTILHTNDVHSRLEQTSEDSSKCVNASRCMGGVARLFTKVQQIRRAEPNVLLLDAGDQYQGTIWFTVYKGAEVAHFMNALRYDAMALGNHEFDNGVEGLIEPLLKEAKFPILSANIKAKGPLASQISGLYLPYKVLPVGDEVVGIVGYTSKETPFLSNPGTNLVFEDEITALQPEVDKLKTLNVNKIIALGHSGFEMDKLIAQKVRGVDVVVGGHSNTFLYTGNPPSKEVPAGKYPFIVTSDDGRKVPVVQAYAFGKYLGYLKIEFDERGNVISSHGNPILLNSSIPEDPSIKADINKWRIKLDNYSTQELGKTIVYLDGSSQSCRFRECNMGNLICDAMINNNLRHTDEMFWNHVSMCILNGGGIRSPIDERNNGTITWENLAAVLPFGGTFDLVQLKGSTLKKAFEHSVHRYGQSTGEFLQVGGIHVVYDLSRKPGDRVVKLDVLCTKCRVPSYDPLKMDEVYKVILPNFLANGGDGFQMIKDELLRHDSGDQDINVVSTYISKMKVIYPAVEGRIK
Assay: CD73 biochemical assay (colorimetric, Malachite Green phosphate detection)
Details: 20 μM compound; 2 nM CD73, 50 μM AMP; read-out: % inhibition at 20 μM (Percent inhibition data in CD73)
Give just the number in %; leave the unit off.

Look over these answered cases.
{"MOLECULE": "Nc1nc(NCCc2ccc(NS(=O)(=O)c3cc(Cl)c4c(c3)C(Cl)(Cl)C(=O)N4)cc2)nc2nc(-c3ccco3)nn12 [Example B2]", "UNITS OF MEASURE": "%", "inhibition at 20 µM": 39}
{"MOLECULE": "NC(=O)c1cc(S(=O)(=O)Nc2ccc(CCCNc3nc(N)n4nc(-c5ccco5)nc4n3)c(O)c2)cc(Cl)c1O [Example A13]", "UNITS OF MEASURE": "%", "inhibition at 20 µM": 97}
{"MOLECULE": "NC(=O)c1cc(S(=O)(=O)Nc2ccc(CCNc3nc(N)n4nc(-c5ccco5)nc4n3)nc2)cc(Cl)c1O [Example E1]", "UNITS OF MEASURE": "%", "inhibition at 20 µM": 86}
{"MOLECULE": "NC(=O)c1cc(S(=O)(=O)Nc2ccc(NCCNc3nc(N)n4nc(-c5ccco5)nc4n3)cc2)cc(Cl)c1O [Example C1]", "UNITS OF MEASURE": "%", "inhibition at 20 µM": 100}
{"MOLECULE": "CC(=O)Nc1nc(NCCc2ccc(NS(=O)(=O)c3cc(Cl)c(O)c(C(N)=O)c3)cc2)nc2nc(-c3ccco3)nn12 [Example A8]", "UNITS OF MEASURE": "%", "inhibition at 20 µM": 70}

Data request: Given the entry NC(=O)c1cc(S(=O)(=O)Nc2ccc(CCCNc3cc4nc(-c5ccco5)nn4c(N)n3)cc2)cc(Cl)c1O [Example A19] , report its measured inhibition at 20 µM.
Data returned: 96

====

Test system A2aR (Homo sapiens), IC50 listed for each of the compounds.

{"ITEM SMILES": "NC(=O)c1cc(S(=O)(=O)Nc2ccc(CCCNc3nc(N)n4nc(-c5ccco5)nc4n3)c(O)c2)cc(Cl)c1O", "MEASURED": "25.1 to 50 nM"}
{"ITEM SMILES": "NC(=O)c1cc(S(=O)(=O)Nc2ccc(CCCOc3nc(N)n4nc(-c5ccco5)nc4n3)cc2)cc(Cl)c1O", "MEASURED": "> 50 nM"}
{"ITEM SMILES": "NC(=O)c1cc(S(=O)(=O)Nc2ccc(CCCNc3cc(N)n4nc(-c5ccco5)nc4n3)cc2F)cc(Cl)c1O", "MEASURED": "> 50 nM"}
{"ITEM SMILES": "NC(=O)c1cc(S(=O)(=O)Nc2ccc(CCNc3nc(N)n4nc(-c5ccco5)nc4n3)cc2)cc(Cl)c1O", "MEASURED": "< 25 nM"}

Here's the next entry for you.
Data request: Need IC50, item NC(=O)c1cc(S(=O)(=O)Nc2ccc(NCCNc3nc(N)n4nc(-c5ccco5)nc4n3)cc2)cc(Cl)c1O
Data returned: < 25 nM

====

Entries annotated with measured inhibition at 20 µM
Molecular target: A2aR (Homo sapiens, UniProt P29274)
Construct: expressed in transfected cells
Sequence (P29274 whole entry): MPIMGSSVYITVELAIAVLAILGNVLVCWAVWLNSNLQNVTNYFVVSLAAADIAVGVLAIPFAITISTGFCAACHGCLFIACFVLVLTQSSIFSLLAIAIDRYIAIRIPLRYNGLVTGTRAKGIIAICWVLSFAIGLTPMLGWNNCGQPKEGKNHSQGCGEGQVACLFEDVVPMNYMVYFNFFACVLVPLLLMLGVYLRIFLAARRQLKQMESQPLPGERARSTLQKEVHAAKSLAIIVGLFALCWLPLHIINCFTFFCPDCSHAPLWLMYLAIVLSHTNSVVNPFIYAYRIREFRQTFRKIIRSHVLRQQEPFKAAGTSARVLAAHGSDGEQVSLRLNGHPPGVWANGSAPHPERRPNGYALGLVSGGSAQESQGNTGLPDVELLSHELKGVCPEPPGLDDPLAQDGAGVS
Experiment: A2aR biochemical assay (TR-FRET binding, Tag-lite A2aR labelled cells, fluorescent antagonist)
Details: 20 μM compound; 10 nM fluorescent A2aR antagonist; vs DMSO control; read-out: % inhibition at 20 μM (Percent inhibition data in A2aR)
// units = %; emit number, no label

Examples from the recorded data:
{"ITEM SMILES": "NC(=O)c1cc(S(=O)(=O)Nc2ccc(CCCOc3cc(N)n4nc(-c5ccco5)nc4n3)cc2)cc(Cl)c1O", "MEASURED": 82}
{"ITEM SMILES": "CN(CCCc1ccc(NS(=O)(=O)c2cc(Cl)c(O)c(C(N)=O)c2)cc1)c1nc(N)n2nc(-c3ccco3)nc2n1", "MEASURED": 82}
{"ITEM SMILES": "NC(=O)c1cc(S(=O)(=O)Nc2ccc(CCCNc3cc(N)n4nc(-c5ccco5)nc4n3)c(F)c2)cc(Cl)c1O", "MEASURED": 81}
{"ITEM SMILES": "NC(=O)c1cc(S(=O)(=O)Nc2ccc(CCCNc3nc(N)n4nc(-c5ccco5)nc4n3)c(F)c2)cc(Cl)c1O", "MEASURED": 82}
{"ITEM SMILES": "NC(=O)c1cc(S(=O)(=O)Nc2ccc(NCCNc3nc(N)n4nc(-c5ccco5)nc4n3)cc2)cc(Cl)c1O", "MEASURED": 81}

Data request: I am curious: what inhibition at 20 µM value has been reported for CC(C)COC(=O)Nc1nc(NCCc2ccc(NS(=O)(=O)c3cc(Cl)c(O)c(C(N)=O)c3)cc2)nc2nc(-c3ccco3)nn12 ?
Data returned: 82

Data request: Ok, now NC(=O)c1cc(S(=O)(=O)Nc2ccc(CCCOc3nc(N)n4nc(-c5ccco5)nc4n3)cc2)cc(Cl)c1O
Data returned: 72

====

Below: a set of entries, each annotated with reported inhibition at 20 µM.
Molecular target: A2aR (Homo sapiens, UniProt P29274)
Construct: expressed in transfected cells
Assay: A2aR biochemical assay (TR-FRET binding, Tag-lite A2aR labelled cells, fluorescent antagonist)
Settings: 20 μM compound; 10 nM fluorescent A2aR antagonist; vs DMSO control; read-out: % inhibition at 20 μM (Percent inhibition data in A2aR)
Answer in %, number only, no unit symbol.

Worked examples follow.
{"MOLECULE": "NC(=O)c1cc(S(=O)(=O)Nc2ccc(CCCCNc3nc(N)n4nc(-c5ccco5)nc4n3)cc2)cc(Cl)c1O", "inhibition at 20 µM, %": 82}
{"MOLECULE": "COC(=O)[C@@H](NC(=O)Oc1c(Cl)cc(S(=O)(=O)Nc2ccc(CCCNc3nc(N)n4nc(-c5ccco5)nc4n3)cc2)cc1C(N)=O)C(C)C", "inhibition at 20 µM, %": 81}
{"MOLECULE": "NC(=O)c1cc(S(=O)(=O)Nc2ccc(CCCNc3cc(N)n4nc(-c5ccco5)cc4n3)cc2)cc(Cl)c1O", "inhibition at 20 µM, %": 79}
{"MOLECULE": "NC(=O)c1cc(S(=O)(=O)Nc2ccc3ccn(CCNc4nc(N)n5nc(-c6ccco6)nc5n4)c3c2)cc(Cl)c1O [Example D1]", "inhibition at 20 µM, %": 85}
{"MOLECULE": "NC(=O)c1cc(S(=O)(=O)Nc2ccc(CCCNc3cc(N)n4nc(-c5ccco5)nc4n3)cc2F)cc(Cl)c1O", "inhibition at 20 µM, %": 78}
{"MOLECULE": "NC(=O)c1cc(S(=O)(=O)Nc2ccc(CCNc3nc(N)n4nc(-c5ccco5)nc4n3)nc2)cc(Cl)c1O [Example E1]", "inhibition at 20 µM, %": 83}
{"MOLECULE": "Nc1nc(NCCCc2ccc(NS(=O)(=O)c3cc(Cl)c4oc(=O)[nH]c(=O)c4c3)cc2)nc2nc(-c3ccco3)nn12", "inhibition at 20 µM, %": 86}
{"MOLECULE": "Nc1nc(NCCc2ccc(NS(=O)(=O)c3cc(Cl)c4[nH]ccc(=O)c4c3)cc2)nc2nc(-c3ccco3)nn12", "inhibition at 20 µM, %": 88}
{"MOLECULE": "Nc1nc(NCCc2ccc(NS(=O)(=O)c3cc(F)c(O)c(Cl)c3)cc2)nc2nc(-c3ccco3)nn12", "inhibition at 20 µM, %": 81}

As a next step, examine the molecule that follows.
Data request: Request body: readout inhibition at 20 µM, system A2aR (Homo sapiens, UniProt P29274), query NC(=O)c1cc(S(=O)(=O)Nc2ccc(CCNc3nc(N)n4nc(-c5ccco5)nc4n3)c(F)c2)cc(Cl)c1O . Return the value.
Data returned: 79

====

Target: A2aR (Homo sapiens, UniProt P29274)
Construct: expressed in transfected cells
Test: A2aR biochemical assay (TR-FRET binding, Tag-lite A2aR labelled cells, fluorescent antagonist)
Settings: 20 μM compound; 10 nM fluorescent A2aR antagonist; vs DMSO control; read-out: % inhibition at 20 μM (Percent inhibition data in A2aR)
Structures can show the parent of a compound that is named as a salt.
Reported inhibition at 20 µM values for a set of compounds
Hi! Could you send only the number? It should be in %, unit omitted.

Consider the following illustrative entries.
{"COMPOUND": "NC(=O)c1cc(S(=O)(=O)Nc2cccc(NCCNc3nc(N)n4nc(-c5ccco5)nc4n3)c2)cc(Cl)c1O [Example C2]", "TARGET": "A2aR (Homo sapiens, UniProt P29274)", "inhibition at 20 µM, %": 85}
{"COMPOUND": "NC(=O)c1cc(S(=O)(=O)Nc2ccc(CCCNc3cc(N)n4nc(-c5ccco5)nc4n3)cc2)cc(Cl)c1O [Example A20]", "TARGET": "A2aR (Homo sapiens, UniProt P29274)", "inhibition at 20 µM, %": 80}
{"COMPOUND": "NC(=O)c1cc(S(=O)(=O)Nc2ccc(CCCNc3nc(N)n4nc(-c5ccco5)nc4n3)cc2)cc(Cl)c1O [Example A26, sodium salt]", "TARGET": "A2aR (Homo sapiens, UniProt P29274)", "inhibition at 20 µM, %": 80}
{"COMPOUND": "CC(=O)Nc1nc(NCCc2ccc(NS(=O)(=O)c3cc(Cl)c(O)c(C(N)=O)c3)cc2)nc2nc(-c3ccco3)nn12 [Example A8]", "TARGET": "A2aR (Homo sapiens, UniProt P29274)", "inhibition at 20 µM, %": 81}
{"COMPOUND": "Nc1nc(NCCc2ccc(NS(=O)(=O)c3cc(Cl)c4c(c3)C(Cl)(Cl)C(=O)N4)cc2)nc2nc(-c3ccco3)nn12 [Example B2]", "TARGET": "A2aR (Homo sapiens, UniProt P29274)", "inhibition at 20 µM, %": 79}
{"COMPOUND": "NC(=O)c1cc(S(=O)(=O)Nc2cccc(CNc3nc(N)n4nc(-c5ccco5)nc4n3)c2)cc(Cl)c1O [Example A1]", "TARGET": "A2aR (Homo sapiens, UniProt P29274)", "inhibition at 20 µM, %": 78}

// next item, inhibition at 20 µM requested
Data request: Could you share what inhibition at 20 µM was measured for NC(=O)c1cc(S(=O)(=O)Nc2ccc(CNc3nc(N)n4nc(-c5ccco5)nc4n3)cc2)cc(Cl)c1O [Example A2] , tested on A2aR (Homo sapiens, UniProt P29274)?
Data returned: 80
